- Target or system: transfected human CB1 receptor (Homo sapiens, UniProt P21554)
- Sequence (P21554 whole entry): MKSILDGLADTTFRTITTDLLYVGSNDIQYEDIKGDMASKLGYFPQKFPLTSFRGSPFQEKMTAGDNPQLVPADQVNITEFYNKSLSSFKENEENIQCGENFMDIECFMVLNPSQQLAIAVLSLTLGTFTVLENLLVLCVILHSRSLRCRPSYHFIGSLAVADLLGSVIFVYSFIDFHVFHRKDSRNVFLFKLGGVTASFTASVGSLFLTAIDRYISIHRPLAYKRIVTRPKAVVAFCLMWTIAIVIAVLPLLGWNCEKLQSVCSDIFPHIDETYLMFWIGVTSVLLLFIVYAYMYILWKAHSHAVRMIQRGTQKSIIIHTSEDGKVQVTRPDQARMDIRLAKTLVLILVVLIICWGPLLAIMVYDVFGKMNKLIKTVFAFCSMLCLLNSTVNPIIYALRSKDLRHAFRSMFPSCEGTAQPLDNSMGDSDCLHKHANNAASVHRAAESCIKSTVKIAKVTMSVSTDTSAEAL
Assay metric: pKi
When answering, recall that pKi equals minus log10 of the concentration in mol/L, and write that number alone.

Param item = C[C@H]1[C@H](NS(=O)(=O)c2ccc(F)cc2)CN1C(c1ccc(Cl)cc1)c1ccc(Cl)cc1 ; retrieve measured pKi.
6.58

* * *

Record form. Attribute: Antagonistic Effect D: Sedation. Fill in for each entry.
- Test system: cannabinoid receptors
- Method: Mouse tetrad model, antagonistic effect against Win 55212-2
- Type: in vivo
- Parameters: unit not given here
- Measurement setup: 5 mg/kg i.v. prior to Win 55212-2 1.25 mg/kg i.v.; male NMRI mice
A bare number is all that is needed in reply.

Param item = C[C@@H]1[C@@H](NS(=O)(=O)c2cccc3nsnc23)CN1C(c1ccc(Cl)cc1)c1ccc(Cl)cc1 (relative stereo) ; retrieve measured Antagonistic Effect D: Sedation.
71

Param item = C[C@H]1[C@H](NS(=O)(=O)c2ccc(F)cc2)CN1C(c1ccc(Cl)cc1)c1ccc(Cl)cc1 ; retrieve measured Antagonistic Effect D: Sedation.
57

Param item = C[C@H]1[C@H](NS(=O)(=O)c2cccs2)CN1C(c1ccc(Cl)cc1)c1ccc(Cl)cc1 ; retrieve measured Antagonistic Effect D: Sedation.
46

Param item = C[C@@H]1[C@@H](NS(=O)(=O)c2ccc(S(C)(=O)=O)cc2)CN1C(c1ccc(Cl)cc1)c1ccc(Cl)cc1 (relative stereo) ; retrieve measured Antagonistic Effect D: Sedation.
9

* * *

Record form. Attribute: Agonistic effect A: Hot-Plate test. Fill in for each entry.
- Test system: cannabinoid receptors
- Method: Mouse tetrad model, agonistic effect (hot plate, hypothermia, catalepsy, sedation)
- Assay type: in vivo
- Design: key: Hot-Plate test: % MPE = (PT−B)/(PC−B)×100
- Measurement setup: 5 mg/kg i.v.; male NMRI mice; 15 minutes after injection
A bare number is all that is needed in reply.

Param item = C[C@@H]1[C@@H](NS(=O)(=O)c2cccc3nsnc23)CN1C(c1ccc(Cl)cc1)c1ccc(Cl)cc1 (relative stereo) ; retrieve measured Agonistic effect A: Hot-Plate test.
14

Param item = C[C@H]1[C@H](NS(=O)(=O)c2cccs2)CN1C(c1ccc(Cl)cc1)c1ccc(Cl)cc1 ; retrieve measured Agonistic effect A: Hot-Plate test.
0

Param item = C[C@@H]1[C@@H](NS(=O)(=O)c2ccc(S(C)(=O)=O)cc2)CN1C(c1ccc(Cl)cc1)c1ccc(Cl)cc1 (relative stereo) ; retrieve measured Agonistic effect A: Hot-Plate test.
16

Param item = C[C@H]1[C@H](NS(=O)(=O)c2ccc(F)cc2)CN1C(c1ccc(Cl)cc1)c1ccc(Cl)cc1 ; retrieve measured Agonistic effect A: Hot-Plate test.
2

* * *

Structures can show the parent of a compound that is named as a salt.
Record form. Attribute: melting point. Fill in for each entry.

Param item = C[C@@H]1[C@@H](NS(=O)(=O)c2ccc(-c3ccccc3)cc2)CN1C(c1ccc(Cl)cc1)c1ccc(Cl)cc1 (relative stereo) ; retrieve measured melting point.
145 to 148 °C

Param item = C[C@@H]1[C@@H](NS(=O)(=O)c2ccc(Oc3ccccc3)cc2)CN1C(c1ccc(Cl)cc1)c1ccc(Cl)cc1 (stereo in doubt) ; retrieve measured melting point.
160 to 162 °C

Param item = C[C@@H]1[C@@H](NS(=O)(=O)c2ccc(F)cc2)CN1C(c1ccc(Cl)cc1)c1ccc(Cl)cc1 [Example 33] ; retrieve measured melting point.
154 to 158 °C

Param item = C[C@H]1[C@H](NC(=O)C2CCCCC2)CN1C(c1ccc(Cl)cc1)c1ccc(Cl)cc1 ; retrieve measured melting point.
65 to 68 °C

Param item = C[C@@H]1[C@@H](NS(=O)(=O)c2cccc3ccccc23)CN1C(c1ccc(Cl)cc1)c1ccc(Cl)cc1 (stereo in doubt) ; retrieve measured melting point.
171 to 174 °C

Param item = C[C@H]1C(NS(=O)(=O)c2ccc(F)cc2)CN1C(c1ccc(Cl)cc1)c1ccc(Cl)cc1 (mixture of isomers) ; retrieve measured melting point.
154 to 157 °C

Param item = C[C@@H]1[C@@H](NS(=O)(=O)c2cc(Cl)cc(Cl)c2)CN1C(c1ccc(Cl)cc1)c1ccc(Cl)cc1 (relative stereo) [Example 18] ; retrieve measured melting point.
144 to 146 °C

Param item = C[C@H]1[C@H](NS(=O)(=O)c2ccc(F)cc2)CN1C(c1ccc(Cl)cc1)c1ccc(Cl)cc1 [Example 5] ; retrieve measured melting point.
154 to 157 °C

Param item = C[C@H]1[C@H](NC(=O)c2cc(F)cc(F)c2)CN1C(c1ccc(Cl)cc1)c1ccc(Cl)cc1 ; retrieve measured melting point.
57 to 60 °C

Param item = C[C@@H]1[C@@H](N(Cc2ccc(F)cc2)S(=O)(=O)c2ccc(F)cc2)CN1C(c1ccc(Cl)cc1)c1ccc(Cl)cc1 (stereo in doubt) ; retrieve measured melting point.
75 to 78 °C

Param item = C[C@@H]1C(N(C)S(=O)(=O)c2ccc(F)cc2)CN1C(c1ccc(Cl)cc1)c1ccc(Cl)cc1 (stereo in doubt) ; retrieve measured melting point.
182 to 186 °C

Param item = C[C@@H]1[C@@H](NS(=O)(=O)c2ccc(S(C)(=O)=O)cc2)CN1C(c1ccc(Cl)cc1)c1ccc(Cl)cc1 (relative stereo) [Example 14] ; retrieve measured melting point.
202 to 204 °C

Param item = C[C@@H]1[C@@H](NS(=O)(=O)c2ccc(Oc3ccc(Br)cc3)cc2)CN1C(c1ccc(Cl)cc1)c1ccc(Cl)cc1 (stereo in doubt) ; retrieve measured melting point.
115 to 119 °C

Param item = C[C@H]1[C@H](NC(=O)C(F)(F)F)CN1C(c1ccc(Cl)cc1)c1ccc(Cl)cc1 (stereo in doubt) (as salt: TFA) ; retrieve measured melting point.
122 to 127 °C

Param item = C[C@@H]1[C@@H](NS(=O)(=O)c2csc3ccccc23)CN1C(c1ccc(Cl)cc1)c1ccc(Cl)cc1 (relative stereo) [Example 25] ; retrieve measured melting point.
192 to 197 °C

Param item = Cc1c(S(=O)(=O)N[C@H]2CN(C(c3ccc(Cl)cc3)c3ccc(Cl)cc3)[C@@H]2C)cnn1-c1ccccc1 (stereo in doubt) ; retrieve measured melting point.
173 to 176 °C

Param item = Cc1c(S(=O)(=O)N[C@H]2CN(C(c3ccc(Cl)cc3)c3ccc(Cl)cc3)[C@@H]2C)sc2ccc(Cl)cc12 (stereo in doubt) ; retrieve measured melting point.
105 to 108 °C

Param item = CCCN([C@H]1CN(C(c2ccc(Cl)cc2)c2ccc(Cl)cc2)[C@@H]1C)S(=O)(=O)c1ccc(F)cc1 (stereo in doubt) ; retrieve measured melting point.
91 to 97 °C

Param item = C[C@H]1[C@H](NS(=O)(=O)c2cccs2)CN1C(c1ccc(Cl)cc1)c1ccc(Cl)cc1 [Example 6] ; retrieve measured melting point.
72 to 76 °C

Param item = Cc1nn(C)c(C)c1S(=O)(=O)N[C@H]1CN(C(c2ccc(Cl)cc2)c2ccc(Cl)cc2)[C@@H]1C ; retrieve measured melting point.
173 to 175 °C
